Entries and their measured solubility at 24 h follow.
- assay.protocol: ADME solubility determination at pH 2.0 and pH 7.4
- Format: physicochemical
- details: aqueous buffer, thermodynamic from solid; PBS pH 2.0, shaken at 25° C. for 24 hours, LC-MS/MS; read-out: Solubility at pH 2.0

Examples with their reported solubility at 24 h follow.
[
  {
    "molecule": "COc1ncnc(C2CC2)c1-c1ncc2cnn(Cc3ccc(-n4nc(C(F)(F)F)cc4OC)nc3)c2n1",
    "solubility at 24 h": "< 10 µM"
  },
  {
    "molecule": "COc1ncnc(C2CC2)c1-c1ncc2c(OC)nn(C(C)c3ccc(-c4nc(C(F)(F)F)cn4CCF)cc3)c2n1 (stereo not shown)",
    "solubility at 24 h": "< 10 µM"
  },
  {
    "molecule": "COc1ncnc(C2CC2)c1-c1ncc2cnn(Cc3ccc(-c4nc(C(F)(F)F)cn4C4CC4)cc3)c2n1",
    "solubility at 24 h": "< 10 µM"
  },
  {
    "molecule": "Cn1cc(C(F)(F)F)nc1-c1ccc(Cn2ncc3cnc(-c4c(OS(=O)(=O)C(F)(F)F)ncnc4C4CC4)nc32)cc1",
    "solubility at 24 h": "< 10 µM"
  }
]

Looking for the measured solubility at 24 h of Cc1cc(C(F)(F)F)nn1-c1ccc(Cn2ncc3cnc(-c4cccnc4C(C)C)nc32)cc1 , can you help?
> 10 µM

Looking for the measured solubility at 24 h of CCn1cc(C(F)(F)F)nc1-c1ccc(Cn2ncc3cnc(-c4c(OC)ncnc4C4CC4)nc32)cc1 , can you help?
> 10 µM

Looking for the measured solubility at 24 h of CCOc1ncnc(OCC)c1-c1ncc2cnn(Cc3ccc(-c4nc(C(F)(F)F)cn4CC)cc3)c2n1 , can you help?
> 10 µM

---

Entries and their measured solubility at 24 h follow.
- assay.protocol: ADME solubility determination at pH 2.0 and pH 7.4
- Assay type: physicochemical
- details: aqueous buffer, thermodynamic from solid; PBS pH 2.0, shaken at 25° C. for 24 hours, LC-MS/MS; read-out: Solubility at pH 2.0

[
  {
    "compound": "COc1ncnc(C(C)(C)F)c1-c1ncc2cnn(Cc3ccc(-c4nc(C(F)(F)F)cn4C)cc3)c2n1",
    "solubility at 24 h": "> 10 µM"
  },
  {
    "compound": "COc1ncnc(C2CC2)c1-c1ncc2c(OC)nn([C@@H](C)c3ccc(-c4nc(C(F)(F)F)c(Br)n4C)cc3)c2n1",
    "solubility at 24 h": "< 10 µM"
  },
  {
    "compound": "COCC(C)n1cc(C(F)(F)F)nc1-c1ccc(Cn2ncc3cnc(-c4c(OC)ncnc4C4CC4)nc32)cc1 (stereo not drawn)",
    "solubility at 24 h": "> 10 µM"
  },
  {
    "compound": "CCn1cc(C(F)(F)F)nc1-c1ccc(Cn2ncc3cnc(-c4c(OC(C)(C)C)ncnc4C4CC4)nc32)cc1",
    "solubility at 24 h": "< 10 µM"
  },
  {
    "compound": "CCn1c(-c2ccc(Cn3ncc4cnc(-c5c(OC)ncnc5C5CC5)nc43)cc2)nc(C(F)(F)F)c1OC",
    "solubility at 24 h": "> 10 µM"
  }
]

Looking for the measured solubility at 24 h of CCn1cc(C(F)(F)F)nc1-c1ccc(Cn2nc(C)c3cnc(-c4c(OC)ncnc4C4CC4)nc32)cc1 , can you help?
< 10 µM

Looking for the measured solubility at 24 h of COc1ncnc(C(C)(C)C)c1-c1ncc2cnn(Cc3ccc(-c4nc(C(F)(F)F)cn4C)cc3)c2n1 , can you help?
< 10 µM

Looking for the measured solubility at 24 h of CCn1cc(C(F)(F)F)nc1-c1ccc(Cn2ncc3cnc(-c4c(OC(F)F)ncnc4C4CC4)nc32)cc1 , can you help?
< 10 µM

Looking for the measured solubility at 24 h of CCc1nc2cnc(-c3c(OC)ncnc3C3CC3)nc2n1Cc1ccc(-c2nc(C(F)(F)F)cn2C(C)C)cc1 , can you help?
> 10 µM

Looking for the measured solubility at 24 h of CCn1cc(C(F)(F)F)nc1-c1ccc(Cn2ncc3c(OC)nc(-c4c(OC)ncnc4C4CC4)nc32)cc1 , can you help?
< 10 µM

Looking for the measured solubility at 24 h of COc1ncnc(C2CC2)c1-c1ncc2c(OC)nn(Cc3ccc(-c4cn(C(C)C)c(C(F)(F)F)n4)cc3)c2n1 , can you help?
< 10 µM

Looking for the measured solubility at 24 h of CCOc1ncnc(OC)c1-c1ncc2cnn(Cc3ccc(-c4nc(C(F)(F)F)cn4CC)cc3)c2n1 , can you help?
> 10 µM

Looking for the measured solubility at 24 h of COc1cn(C(C)C)c(-c2ccc(Cn3ncc4cnc(-c5c(OC)ncnc5C5CC5)nc43)cc2)n1 , can you help?
> 10 µM

Looking for the measured solubility at 24 h of Cc1cc(C(F)F)nn1-c1ccc(Cn2ncc3cnc(-c4cccnc4C(C)C)nc32)cc1 , can you help?
> 10 µM

Looking for the measured solubility at 24 h of COc1ncnc(C2CC2)c1-c1ncc2ccn(Cc3ccc(-c4nc(C(F)(F)F)cn4C)cc3)c2n1 , can you help?
> 10 µM
